Entry source: PubChem BioAssay (NCI)

molecules and their reported TGI
Test system: BT-549 breast
Assay: NCI tumour cell line growth inhibition, 48 h

Solved entries:
molecule	property.measured	endpoint.result
N#CC(C#N)=CNCCN1CCN(C=C(C#N)C#N)CC1	TGI	> 100 µM
CS(=O)(=O)N1CCC(n2c(=O)c(Oc3ccc(F)cc3F)cc3cnc(NC4CCOCC4)nc32)CC1	TGI	> 25 µM

Q: Under BT-549 breast: report TGI of `OCc1ccc(-c2csc(-c3ccc(CO)o3)c2)o1` .
A: > 80.7 µM

Q: Report its TGI with BT-549 breast as the test system: `Cc1cc2c(c(C(=O)NCC(=O)N[C@@H](C)C(=O)OCc3ccccc3)c1)Oc1c(cc(C)cc1C(=O)NCC(=O)N[C@@H](C)C(=O)OCc1ccccc1)S2`
A: > 100 µM

Q: // output TGI; input `Cc1nnc(N)nc1/C=C\c1ccc(Cl)cc1Cl` ; system BT-549 breast
A: > 100 µM

Q: With BT-549 breast as the test system, provide measured TGI for this molecule: Cc1ncc([N+](=O)[O-])n1CC[N+](C)([O-])CCCCn1ccnc1[N+](=O)[O-] (stereo unspecified)
A: > 100 µM

* * *

Recorded TGI values for a group of molecules are listed next.
System: T-47D breast
Assay: NCI tumour cell line growth inhibition, 48 h

Reference set (2 entries):
molecule	TGI
CCn1c(-c2nonc2N)nc2c(C#CC(C)(C)O)ncc(OC3CCNCC3)c21	> 25 µM
Oc1c(C(Nc2ccccn2)c2cccc(Oc3ccccc3)c2)ccc2cccnc12 (centres undefined)	33.2 µM

Q: Provide TGI value for the following molecule: `Cn1c(-c2ccc(-c3cc(-c4cccs4)c(-c4cccs4)n3C)cc2)cc(-c2cccs2)c1-c1cccs1`
A: > 100 µM

Q: Recall and state the measured TGI for CC(C)(C)COC(=O)C(C)(C)NC(=O)C(CC(=O)OCc1ccccc1)NC(=O)OCc1ccccc1 (centres undefined) .
A: 60.2 µM

Q: Look up and report measured TGI for this entry: CC1CCCC(C(=O)CC2CC(=O)NC(=O)C2)C1=O (centres undefined)
A: > 100 µM

Q: Query TGI for `O=C(NC(=S)Nc1ccc([N+](=O)[O-])cc1)c1ccc2c(c1)Sc1ccccc1O2`
A: > 100 µM

Q: State its TGI for this molecule: `O=C(O)CCCCn1ccc(=O)[nH]c1=O`
A: > 100 µM

* * *

Tested on: T-47D breast
Test: NCI tumour cell line growth inhibition, 48 h; in the data active means GI50 below about 0.43 µM; inactive means the rest
The categories you may choose from are active, inactive

molecule	class.label
NC(=O)c1cccc2c(N[C@H](CN3CCC3)c3ccc(Cl)c(C(F)(F)F)c3)ncnc12	active
Cc1ccc(-c2nc3nc(-c4ccc(F)cc4)nc(N4CCNCC4)c3o2)cc1	inactive
CCN1CCC(CC(=O)Nc2n[nH]c3nnc(-c4cccc(F)c4F)cc23)CC1	inactive
COc1cc(-c2cc3ncccc3c3nc(OCCN(C)C)c4cccnc4c23)cc(OC)c1OC	inactive
CCCCCCCCCCCCCC[n+]1ccccc1	inactive

Q: Please state the recorded outcome for this molecule: `Cc1ccc(C)c2c1C(=O)N(c1ccc(F)cc1F)C2=O`
A: inactive

Q: Write down the call the test reported for this molecule. Item: `O=C1Nc2ccccc2/C1=C\c1c(-c2ccccc2)nc2sccn12`
A: inactive

Q: Field: outcome | Entry: Oc1c(C(Nc2ccccn2)c2cccc(Oc3ccccc3)c2)ccc2cccnc12 (stereo not drawn)
A: inactive
